# residual activity per record follows
ASSAY TARGET: CDK9/cyclin T1 (Homo sapiens) (UniProt O60563+P50750)
APPLIED CONDITIONS: at 1 µM
RECORDED ENDPOINT: residual activity

- Cc1cncc2cccc(S(=O)(=O)N3CCCN(C(=O)CN)C[C@H]3C)c12: 92%
- Oc1c2ccccc2c2c3c(cccc13)N=N2: 96%
- CC(C)n1cnc2/c(=N/c3cccc(Cl)c3)nc(NCCO)[nH]c21: 63%
- Oc1ccc(-c2nc(-c3ccc(F)cc3)c(-c3ccncc3)[nH]2)cc1: 94%
- c1ccc(-c2n[nH]cc2-c2ccnc3ccccc23)nc1: 103%

----------
ASSAY TARGET: Interleukin-1 receptor-associated kinase 1 (Homo sapiens)
APPLIED CONDITIONS: at 10 µM
RECORDED ENDPOINT: residual activity

• Cc1nc2cc3nc(-c4cccs4)cnc3cc2n1C = 90%
• CN(C)CCCn1cc(C2=C(c3c[nH]c4ccccc34)C(=O)NC2=O)c2ccccc21 = 89%
• CC[n+]1c(/C=C/N(C)c2ccccc2)n(-c2ccccc2)c2ccc(-c3nc4ccccc4s3)cc21 = 92%

----------
ASSAY TARGET: Tyrosine-protein kinase Lyn (Homo sapiens)
APPLIED CONDITIONS: at 10 µM
# residual activity per record follows
RECORDED ENDPOINT: residual activity (%)

- O=c1c2ccccc2[nH]c(=S)n1CCN1CCC(=C(c2ccc(F)cc2)c2ccc(F)cc2)CC1: 46
- Oc1c2ccccc2c2c3c(cccc13)N=N2: 30
- Cc1nc2cc3nc(-c4cccs4)cnc3cc2n1C: 32
- C[C@@H](N)[C@H]1CC[C@H](C(=O)Nc2ccncc2)CC1: 100
- O=C1NC(=O)c2c1c1c3ccccc3[nH]c1c1[nH]c3cc(Br)ccc3c21: 69

----------
ASSAY TARGET: Ribosomal protein S6 kinase alpha-2 (Homo sapiens) (UniProt Q15349)
Sequence (Q15349 whole entry): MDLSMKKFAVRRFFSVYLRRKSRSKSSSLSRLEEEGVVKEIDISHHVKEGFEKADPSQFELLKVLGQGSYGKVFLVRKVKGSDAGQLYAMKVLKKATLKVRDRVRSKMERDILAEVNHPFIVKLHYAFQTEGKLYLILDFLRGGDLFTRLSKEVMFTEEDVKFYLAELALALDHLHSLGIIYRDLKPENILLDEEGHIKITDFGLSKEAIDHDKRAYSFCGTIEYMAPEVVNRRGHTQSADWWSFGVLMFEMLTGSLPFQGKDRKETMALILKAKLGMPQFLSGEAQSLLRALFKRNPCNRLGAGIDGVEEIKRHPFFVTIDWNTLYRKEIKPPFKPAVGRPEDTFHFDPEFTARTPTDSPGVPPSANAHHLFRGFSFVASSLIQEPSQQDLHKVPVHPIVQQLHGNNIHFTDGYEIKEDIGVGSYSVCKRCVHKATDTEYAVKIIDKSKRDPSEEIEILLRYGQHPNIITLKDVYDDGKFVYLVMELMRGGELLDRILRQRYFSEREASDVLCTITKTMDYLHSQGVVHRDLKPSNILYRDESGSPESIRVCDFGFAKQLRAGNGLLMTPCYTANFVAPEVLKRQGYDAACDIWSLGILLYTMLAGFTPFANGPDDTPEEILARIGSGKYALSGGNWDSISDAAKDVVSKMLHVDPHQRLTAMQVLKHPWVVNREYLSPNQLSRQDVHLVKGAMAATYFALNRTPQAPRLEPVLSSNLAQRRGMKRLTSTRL
APPLIED CONDITIONS: at 10 µM
# residual activity per record follows
RECORDED ENDPOINT: residual activity (%)

* O=C1Nc2ccccc2/C1=C1/Nc2ccccc2/C1=N\OCCC(O)CO (stereo not drawn) | 2
* COc1ccc(S(=O)(=O)N(CCO)c2ccccc2CN(C)C/C=C/c2ccc(Cl)cc2)cc1 | 92
* O=c1c2ccccc2[nH]c(=S)n1CCN1CCC(=C(c2ccc(F)cc2)c2ccc(F)cc2)CC1 | 100

----------
ASSAY TARGET: Tyrosine-protein kinase Lck (Homo sapiens)
APPLIED CONDITIONS: at 10 µM
// thresholds for residual activity classes: low end: < 40%; middle: ≥ 40% and < 80%; high end: ≥ 80%

* CC(=O)O/N=C1\C(=C2\C(=O)Nc3cc(Br)ccc32)Nc2ccccc21 | low end
* Cn1cnc2cc3c(Nc4cccc(Br)c4)ncnc3cc21 | low end
* COc1cc2ncnc(Nc3ccc(Oc4ccccc4)cc3)c2cc1OC | low end
* Cc1ccc(S(=O)(=O)/C=C/C#N)cc1 | high end
* COc1ccc(S(=O)(=O)N(CCO)c2ccccc2CN(C)C/C=C/c2ccc(Cl)cc2)cc1 | middle
* O=C1NC(=O)c2c1c1c3ccccc3[nH]c1c1[nH]c3cc(Br)ccc3c21 | middle
* Oc1ccc(-c2nc(-c3ccc(F)cc3)c(-c3ccncc3)[nH]2)cc1 | middle
* COc1cccc(-c2cc(=O)c3ccccc3o2)c1N | high end
* CNc1cc2c(Nc3cccc(Br)c3)ncnc2cn1 | low end
* O=C1Nc2cc(Br)ccc2/C1=C1/Nc2ccccc2/C1=N\O | low end
* COc1ccc(C(=O)Nc2sc3c(c2C(N)=O)CCCC3)cc1OC | high end
* Oc1c2ccccc2c2c3c(cccc13)N=N2 | middle
* CCC(=O)Nc1ccc2ncnc(Nc3cccc(Br)c3)c2c1 | middle
* Cc1cc2ncc(-c3ccccc3)nc2cc1C | high end
* CO[C@H]1[C@@H](OC)C[C@H](C)[C@@H](OC)C2=CC(=O)C=C(NC(=O)/C(C)=C/C=C/[C@H](OC)[C@@H](OC(N)=O)/C(C)=C/[C@@H]1C)C2=O | high end
* CCN(CC)CCCCN1c2ccccc2Oc2ccc(Cl)cc21 | high end
* N#CCCc1ccc2c(c1)-c1[nH]c3ccc([N+](=O)[O-])cc3c1CC(=O)N2 | low end
* O=C1NC(=O)/C(=C/c2ccc3c(c2)OC(F)(F)O3)S1 | high end
* c1ccc(-c2n[nH]cc2-c2ccnc3ccccc23)nc1 | middle
* O=C(Nc1cccc(Nc2nccc(Nc3cccc(C(F)(F)F)c3)n2)c1)C1CC1 | low end
* CN(C)CCCn1cc(C2=C(c3c[nH]c4ccccc34)C(=O)NC2=O)c2ccccc21 | middle
* CC(C)n1cnc2/c(=N/c3cccc(Cl)c3)nc(NCCO)[nH]c21 | low end
* CCOc1cc2ncnc(Nc3cccc(Br)c3)c2cc1OCC | low end
* Oc1ccc(Nc2nc(-c3ccc(Cl)cc3)cs2)cc1 | high end
* Cc1cc(Nc2nc(-c3ccccc3)nc3ccccc23)n[nH]1 | low end
* COc1cc2ncnc(N3CCN(C(=O)Nc4ccc(Oc5ccccc5)cc4)CC3)c2cc1OC | middle
* Cn1nc2c3c(cccc31)C(=O)c1ccccc1-2 | high end
* CN(C)c1ccc(/C=C2\C(=O)Nc3ccccc32)cc1 | middle
* O=c1cc(-c2cccc3c2Sc2ccccc2S3)oc(N2CCOCC2)c1 | high end
* O=C(O)c1ccc2c3c1cccc3c(=O)n1c3ccccc3nc21 | high end
* CO[C@@H]1[C@H](N(C)C(=O)c2ccccc2)C[C@H]2O[C@]1(C)n1c3ccccc3c3c4c(c5c6ccccc6n2c5c31)C(=O)NC4 | low end

----------
ASSAY TARGET: RAF proto-oncogene serine/threonine-protein kinase (Homo sapiens) (UniProt P04049)
Sequence (P04049 whole entry): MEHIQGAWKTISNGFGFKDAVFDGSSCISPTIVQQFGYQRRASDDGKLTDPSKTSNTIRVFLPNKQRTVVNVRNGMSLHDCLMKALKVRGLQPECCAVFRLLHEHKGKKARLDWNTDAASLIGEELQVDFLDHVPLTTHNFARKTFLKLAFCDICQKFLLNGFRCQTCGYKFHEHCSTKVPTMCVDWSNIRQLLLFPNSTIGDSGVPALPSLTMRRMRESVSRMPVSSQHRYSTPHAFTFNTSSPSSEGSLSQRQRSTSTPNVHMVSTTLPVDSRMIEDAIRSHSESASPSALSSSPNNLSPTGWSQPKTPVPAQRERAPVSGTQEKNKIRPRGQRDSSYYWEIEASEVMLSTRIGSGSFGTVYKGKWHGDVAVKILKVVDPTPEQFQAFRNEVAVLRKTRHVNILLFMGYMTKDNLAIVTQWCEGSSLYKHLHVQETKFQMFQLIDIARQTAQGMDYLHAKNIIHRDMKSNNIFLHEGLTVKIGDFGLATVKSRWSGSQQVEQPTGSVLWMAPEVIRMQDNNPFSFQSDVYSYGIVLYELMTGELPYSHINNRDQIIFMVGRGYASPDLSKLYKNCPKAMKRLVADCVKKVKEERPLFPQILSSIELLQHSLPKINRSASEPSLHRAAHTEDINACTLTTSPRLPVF
APPLIED CONDITIONS: at 10 µM
Decide by residual activity: equal to or exceeding 70% means condition met, less means condition not met.

* Cc1nc2cc3nc(-c4cccs4)cnc3cc2n1C | condition met
* CN(C)CCCn1cc(C2=C(c3c[nH]c4ccccc34)C(=O)NC2=O)c2ccccc21 | condition met
* N#C/C(=C(\N)Sc1ccc(N)cc1)c1ccccc1C(F)(F)F | condition not met
* Cc1ccc(NC2=CC(=O)c3sc(C)nc3C2=O)cc1 | condition met
* O=Nc1c(-c2c(O)[nH]c3ccccc23)[nH]c2ccccc12 | condition not met
* Oc1c2ccccc2c2c3c(cccc13)N=N2 | condition not met
* CO[C@@H]1[C@H](N(C)C(=O)c2ccccc2)C[C@H]2O[C@]1(C)n1c3ccccc3c3c4c(c5c6ccccc6n2c5c31)C(=O)NC4 | condition met
* O=C1c2ccccc2-[n+]2ccc3c([nH]c4ccccc43)c21 | condition met
* c1ccc(-c2n[nH]cc2-c2ccnc3ccccc23)nc1 | condition not met
* COc1cc2ncnc(N3CCN(C(=O)Nc4ccc(Oc5ccccc5)cc4)CC3)c2cc1OC | condition met
* Nc1ccc2ncnc(NCCc3ccc(Oc4ccccc4)cc3)c2c1 | condition met
* c1ccc2c(-c3ccncc3)c[nH]c2c1 | condition met
* N#Cc1cnc2cnc(NCc3cccnc3)cc2c1Nc1ccc(F)c(Cl)c1 | condition met
* Cc1cc2ncc(-c3ccccc3)nc2cc1C | condition met
* Nc1nc(Nc2ccc(S(N)(=O)=O)cc2)nn1C(=S)Nc1c(F)cccc1F | condition not met

----------
# residual activity per record follows
ASSAY TARGET: Ribosomal protein S6 kinase alpha-5 (Homo sapiens) (UniProt O75582)
Sequence (O75582 whole entry, looked up): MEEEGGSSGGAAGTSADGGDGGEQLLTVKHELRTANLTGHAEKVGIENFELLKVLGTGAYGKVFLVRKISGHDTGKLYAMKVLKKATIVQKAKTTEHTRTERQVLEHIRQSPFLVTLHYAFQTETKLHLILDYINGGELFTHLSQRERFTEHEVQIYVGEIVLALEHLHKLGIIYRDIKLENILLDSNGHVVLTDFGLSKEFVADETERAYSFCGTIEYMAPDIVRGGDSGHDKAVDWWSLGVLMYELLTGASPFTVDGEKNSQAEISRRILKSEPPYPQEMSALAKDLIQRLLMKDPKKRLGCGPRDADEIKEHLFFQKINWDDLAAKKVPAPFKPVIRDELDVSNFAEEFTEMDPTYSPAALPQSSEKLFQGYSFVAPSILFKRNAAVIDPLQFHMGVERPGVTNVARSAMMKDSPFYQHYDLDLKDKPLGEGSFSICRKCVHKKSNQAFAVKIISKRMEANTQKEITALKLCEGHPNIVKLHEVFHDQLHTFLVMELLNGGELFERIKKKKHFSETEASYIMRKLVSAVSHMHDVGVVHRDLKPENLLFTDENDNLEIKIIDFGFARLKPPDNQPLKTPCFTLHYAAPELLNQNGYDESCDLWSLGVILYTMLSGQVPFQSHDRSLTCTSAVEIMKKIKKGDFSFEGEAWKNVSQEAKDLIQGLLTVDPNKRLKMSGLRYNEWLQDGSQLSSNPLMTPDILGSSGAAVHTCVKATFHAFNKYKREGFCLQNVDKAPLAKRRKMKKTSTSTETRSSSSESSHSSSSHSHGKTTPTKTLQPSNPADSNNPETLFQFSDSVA
APPLIED CONDITIONS: at 10 µM
RECORDED ENDPOINT: residual activity (%)

- CC(C)n1cnc2c(NCc3ccccc3)nc(NCCCO)nc21: 110
- CNc1cc2c(Nc3cccc(Br)c3)ncnc2cn1: 110
- O=C1Nc2ccccc2/C1=C1/Nc2ccccc2/C1=N\OCCC(O)CO (stereo not given): 10
- COc1cc2ncnc(Nc3ccc(NC(=O)c4ccccc4)cc3)c2cc1OC: 95
- CC[n+]1c(/C=C/N(C)c2ccccc2)n(-c2ccccc2)c2ccc(-c3nc4ccccc4s3)cc21: 99

----------
# residual activity per record follows
ASSAY TARGET: Tyrosine-protein kinase ABL2 (Homo sapiens) (UniProt P42684)
Sequence (P42684 whole entry): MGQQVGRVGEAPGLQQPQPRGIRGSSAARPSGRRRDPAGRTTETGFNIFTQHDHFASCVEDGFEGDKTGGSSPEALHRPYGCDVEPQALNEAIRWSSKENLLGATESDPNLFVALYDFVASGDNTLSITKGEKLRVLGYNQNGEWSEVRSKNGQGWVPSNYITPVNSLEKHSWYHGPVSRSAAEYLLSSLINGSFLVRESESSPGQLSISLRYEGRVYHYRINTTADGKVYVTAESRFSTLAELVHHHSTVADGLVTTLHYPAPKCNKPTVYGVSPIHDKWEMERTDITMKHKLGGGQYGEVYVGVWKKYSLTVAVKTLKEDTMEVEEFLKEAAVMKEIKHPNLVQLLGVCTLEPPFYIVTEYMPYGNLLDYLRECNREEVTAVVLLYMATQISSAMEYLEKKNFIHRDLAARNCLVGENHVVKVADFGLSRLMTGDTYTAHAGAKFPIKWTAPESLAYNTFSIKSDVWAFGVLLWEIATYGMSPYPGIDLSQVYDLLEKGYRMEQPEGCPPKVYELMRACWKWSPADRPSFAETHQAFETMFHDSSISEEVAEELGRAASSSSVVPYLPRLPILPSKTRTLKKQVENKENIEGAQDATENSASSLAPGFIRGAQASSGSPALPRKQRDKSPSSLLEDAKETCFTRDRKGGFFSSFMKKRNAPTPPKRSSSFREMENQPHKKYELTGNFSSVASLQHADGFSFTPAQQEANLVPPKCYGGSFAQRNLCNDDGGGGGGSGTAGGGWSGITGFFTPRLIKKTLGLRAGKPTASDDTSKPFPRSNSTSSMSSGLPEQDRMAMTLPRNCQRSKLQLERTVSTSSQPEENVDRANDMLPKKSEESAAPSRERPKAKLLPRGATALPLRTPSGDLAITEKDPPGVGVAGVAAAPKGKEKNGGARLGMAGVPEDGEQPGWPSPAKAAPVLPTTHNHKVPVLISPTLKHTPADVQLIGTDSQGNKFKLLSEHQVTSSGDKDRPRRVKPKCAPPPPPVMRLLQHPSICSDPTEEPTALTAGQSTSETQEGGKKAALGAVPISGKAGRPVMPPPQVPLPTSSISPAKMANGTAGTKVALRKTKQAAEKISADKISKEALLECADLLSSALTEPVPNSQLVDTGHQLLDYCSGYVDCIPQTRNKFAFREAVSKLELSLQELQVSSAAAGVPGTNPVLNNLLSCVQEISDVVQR
APPLIED CONDITIONS: at 1 µM
RECORDED ENDPOINT: residual activity (%)

- O=C1NC(=O)/C(=C\c2ccc3nccnc3c2)S1: 89
- N#C/C(=C(\N)Sc1ccc(N)cc1)c1ccccc1C(F)(F)F: 88
- CN(C)CCCn1cc(C2=C(c3c[nH]c4ccccc34)C(=O)NC2=O)c2ccccc21: 90
- O=C(O)c1ccc2c3c1cccc3c(=O)n1c3ccccc3nc21: 91

----------
ASSAY TARGET: Serine/threonine-protein kinase pim-3 (Homo sapiens)
APPLIED CONDITIONS: at 10 µM
# residual activity per record follows
RECORDED ENDPOINT: residual activity

- CO[C@@H]1[C@H](N(C)C(=O)c2ccccc2)C[C@H]2O[C@]1(C)n1c3ccccc3c3c4c(c5c6ccccc6n2c5c31)C(=O)NC4: 88%
- CC#CC(=O)Nc1cc2c(Nc3ccc(F)c(Cl)c3)ncnc2cn1: 91%
- CN(C)c1ccc(/C=C2\C(=O)Nc3ccccc32)cc1: 91%
- COc1cccc(-c2cc(=O)c3ccccc3o2)c1N: 91%
- Cn1cnc2cc3c(Nc4cccc(Br)c4)ncnc3cc21: 88%
- c1ccc(-c2n[nH]c3c2oc2ccccc23)cc1: 90%
- CC(=O)c1ccc(N2CCOCC2)cc1O: 91%

Values were extracted from ChEMBL document CHEMBL2218924.
